System: V-ATPase-dependent lysosomal acidification
Experiment: cells
Format: cell-based, human
Details: 24 hr Lysotracker IC50; 1000 nM set as activity threshold (FIG. 11-14); read-out: Lyso IC50
pIC50: −log10 of the molar value.
Result Type: pIC50

Compound	Result Type	Result Value
C#CCCC(=O)O[C@H]1C[C@@H](O[C@@H]2C[C@](O)([C@@H](C)[C@H](O)[C@H](C)[C@H]3OC(=O)/C(OC)=C/C(C)=C/[C@@H](C)[C@@H](O)[C@@H](CC)[C@@H](O)[C@H](C)C/C(C)=C/C=C/[C@@H]3OC)O[C@H](/C=C/C)[C@H]2C)O[C@@H](C)[C@@H]1OC(N)=O [23-Alkyne CMA, 3′-pent-4-ynoate Concanamycins A-C]	pIC50	8.96
C/C=C/[C@H]1O[C@@](O)([C@@H](C)[C@H](O)[C@H](C)[C@H]2OC(=O)/C(OC)=C/C(C)=C/[C@@H](C)[C@@H](O)[C@@H](CC)[C@@H](O)[C@H](C)C/C(C)=C/C=C/[C@@H]2OC)C[C@@H](O[C@H]2C[C@@H](O)[C@H](OC(N)=O)[C@@H](C)O2)[C@@H]1C	pIC50	9.01
CO/C1=C\C(C)=C\[C@@H](C)[C@@H](O)[C@@H](C)C/C(C)=C/C=C/[C@H](OC)[C@@H]([C@@H](C)[C@@H](O)[C@H](C)[C@@]2(O)C[C@@H](O)[C@H](C)[C@@H](C(C)C)O2)OC1=O	pIC50	7.35
C/C=C/[C@H]1O[C@@](O)([C@@H](C)[C@H](O)[C@H](C)[C@H]2OC(=O)/C(OC)=C/C(C)=C/[C@@H](C)[C@@H](O)[C@@H](C)[C@@H](O)[C@H](C)C/C(C)=C/C=C/[C@@H]2OC)C[C@@H](O[C@H]2C[C@@H](O)[C@H](OC(N)=O)[C@@H](C)O2)[C@@H]1C [CMB, Concanamycin B, reference compound]	pIC50	7.53
CO/C1=C\C(C)=C\C(C)C(O)C(C)C/C(C)=C/C=C/C(OC)C(C(C)C(O)C(C)C2(O)CC(O[C@@H]3O[C@@H](C)[C@H](O)[C@@H](O)[C@H]3OC)C(C)C(C(C)C)O2)OC1=O (stereo partly shown) [Leucanicidin, reference compound]	pIC50	8.69
C#CCCC(=O)O[C@H]1C[C@@H](O[C@@H]2C[C@](O)([C@@H](C)[C@H](O)[C@H](C)[C@H]3OC(=O)/C(OC)=C/C(C)=C/[C@@H](C)[C@@H](O)[C@@H](CC)[C@@H](O)[C@H](C)C/C(C)=C/C=C/[C@@H]3OC)O[C@H](/C=C/C)[C@H]2C)O[C@@H](C)[C@@H]1OC(N)=O [23-Alkyne CMC, 3′-pent-4-ynoate Concanamycins A-C]	pIC50	8.24
C/C=C/[C@H]1O[C@@](O)([C@@H](C)[C@H](O)[C@H](C)[C@H]2OC(=O)/C(OC)=C/C(C)=C/[C@@H](C)[C@@H](O)[C@@H](CC)[C@@H](O)[C@H](C)C/C(C)=C/C=C/[C@@H]2OC)C[C@@H](O[C@H]2C[C@@H](O)[C@H](O)[C@@H](C)O2)[C@@H]1C [CMC, Concanamycin C, reference compound]	pIC50	8.57
